- STUDY TARGET: Doc1-122–His6 (DocSTm toxin) (Salmonella typhimurium)
- MEASUREMENT DESCRIPTION: SPR; Biacore S200; Doc-His6 captured on a Series S NTA chip (200-400 RU); peptide as analyte, single-cycle kinetics, six concentrations (3-fold dilutions), 30 uL/min; 22 C; 10 mM HEPES, 500 mM NaCl, 50 uM EDTA, 0.005% TWEEN 20, pH 8.0; kinetic 1:1 fit
pKd: −log10 of the molar value.
MEASUREMENT TYPE: pKd

BINDER: Ac-EFAAIMAVHGNELRELADK-OH [peptide 21 (PhdSTm55-73)]
MEASUREMENT TYPE: pKd
RESULT: 9.40
